ASSAY_TARGET: UniProtKB O88693
Sequence (O88693 whole entry): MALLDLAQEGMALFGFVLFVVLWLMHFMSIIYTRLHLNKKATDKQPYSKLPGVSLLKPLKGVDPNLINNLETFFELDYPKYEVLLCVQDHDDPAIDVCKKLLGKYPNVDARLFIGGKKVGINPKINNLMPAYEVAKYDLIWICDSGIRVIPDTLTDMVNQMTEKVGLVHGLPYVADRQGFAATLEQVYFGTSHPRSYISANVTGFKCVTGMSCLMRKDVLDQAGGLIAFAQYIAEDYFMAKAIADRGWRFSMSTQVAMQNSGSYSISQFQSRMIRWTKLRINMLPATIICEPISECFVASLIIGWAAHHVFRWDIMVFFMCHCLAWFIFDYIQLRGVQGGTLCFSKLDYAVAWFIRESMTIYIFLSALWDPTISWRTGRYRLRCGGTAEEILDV
ASSAY: Inhibition of glucosylceramide synthase in mouse RAW cells preincubated for 15 mins followed by substrate addition and measured after 1 hr by fluorescence scanner
ENDPOINT_LABEL: IC50

{"MOLECULE_SMILES": "OC[C@H]1NCC=C[C@H]1O", "ASSAY_TARGET": "UniProtKB O88693", "ENDPOINT_LABEL": "IC50", "MEASURED_RESULT": "> 10 µM"}
{"MOLECULE_SMILES": "CCCCN1CC[C@@H](O)[C@H](O)[C@H]1CO", "ASSAY_TARGET": "UniProtKB O88693", "ENDPOINT_LABEL": "IC50", "MEASURED_RESULT": "> 10 µM"}
{"MOLECULE_SMILES": "CCCCN1CCC[C@H](O)[C@H]1CO", "ASSAY_TARGET": "UniProtKB O88693", "ENDPOINT_LABEL": "IC50", "MEASURED_RESULT": "> 10 µM"}
{"MOLECULE_SMILES": "OC[C@H]1NCCC[C@H]1O", "ASSAY_TARGET": "UniProtKB O88693", "ENDPOINT_LABEL": "IC50", "MEASURED_RESULT": "> 10 µM"}
{"MOLECULE_SMILES": "OC[C@H]1[C@H](O)[C@H](O)CCN1CCCCCOCC12CC3CC(CC(C3)C1)C2", "ASSAY_TARGET": "UniProtKB O88693", "ENDPOINT_LABEL": "IC50", "MEASURED_RESULT": "> 10 µM"}
{"MOLECULE_SMILES": "CCCCN1CC[C@@H](O)[C@H](O)[C@@H]1CO", "ASSAY_TARGET": "UniProtKB O88693", "ENDPOINT_LABEL": "IC50", "MEASURED_RESULT": "> 10 µM"}
{"MOLECULE_SMILES": "CCCCN1CC=C[C@H](O)[C@H]1CO", "ASSAY_TARGET": "UniProtKB O88693", "ENDPOINT_LABEL": "IC50", "MEASURED_RESULT": "> 10 µM"}
{"MOLECULE_SMILES": "OC[C@@H]1[C@@H](O)[C@@H](O)CCN1CCCCCOCC12CC3CC(CC(C3)C1)C2", "ASSAY_TARGET": "UniProtKB O88693", "ENDPOINT_LABEL": "IC50", "MEASURED_RESULT": "> 10 µM"}

* * *

ASSAY_TARGET: Beta-glucosidase (Homo sapiens, UniProt Q9HCG7)
Sequence (Q9HCG7 whole entry): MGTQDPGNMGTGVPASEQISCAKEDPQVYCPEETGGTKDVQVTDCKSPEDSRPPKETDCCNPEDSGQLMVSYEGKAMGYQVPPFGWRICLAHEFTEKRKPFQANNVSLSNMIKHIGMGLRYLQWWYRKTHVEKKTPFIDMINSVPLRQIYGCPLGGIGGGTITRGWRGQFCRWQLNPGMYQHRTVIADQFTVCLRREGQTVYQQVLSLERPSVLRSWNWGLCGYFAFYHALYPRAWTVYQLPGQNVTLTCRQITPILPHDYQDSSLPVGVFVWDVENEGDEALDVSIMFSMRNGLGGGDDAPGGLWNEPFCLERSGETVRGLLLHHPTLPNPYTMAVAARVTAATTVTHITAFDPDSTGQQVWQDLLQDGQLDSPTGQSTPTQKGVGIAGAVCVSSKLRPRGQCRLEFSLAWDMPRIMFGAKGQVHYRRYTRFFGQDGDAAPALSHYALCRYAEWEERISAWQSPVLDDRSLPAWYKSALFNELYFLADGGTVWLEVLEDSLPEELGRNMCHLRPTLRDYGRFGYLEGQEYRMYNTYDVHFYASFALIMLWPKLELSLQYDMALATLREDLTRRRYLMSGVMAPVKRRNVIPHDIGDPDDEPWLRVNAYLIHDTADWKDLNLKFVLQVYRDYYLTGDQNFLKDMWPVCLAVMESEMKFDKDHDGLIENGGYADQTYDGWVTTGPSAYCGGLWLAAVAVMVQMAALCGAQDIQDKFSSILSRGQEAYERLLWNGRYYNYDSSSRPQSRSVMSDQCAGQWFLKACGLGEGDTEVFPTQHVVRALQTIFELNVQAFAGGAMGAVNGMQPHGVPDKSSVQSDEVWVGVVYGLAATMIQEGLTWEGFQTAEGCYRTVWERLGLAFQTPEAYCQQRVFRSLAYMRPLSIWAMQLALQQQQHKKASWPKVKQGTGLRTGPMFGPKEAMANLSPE
pIC50: −log10 of the molar value.
ENDPOINT_LABEL: pIC50

{"MOLECULE_SMILES": "OC[C@H]1[C@@H](O)[C@H](O)CCN1CCCCCOCC12CC3CC(CC(C3)C1)C2", "ASSAY_TARGET": "Beta-glucosidase (Homo sapiens, UniProt Q9HCG7)", "READOUT_QUALIFIER": "=", "MEASURED_RESULT": 6.30}
{"MOLECULE_SMILES": "C[C@@H]1[C@@H](O)[C@H](O)[C@@H](O)CN1CCCCCOCC12CC3CC(CC(C3)C1)C2", "ASSAY_TARGET": "Beta-glucosidase (Homo sapiens, UniProt Q9HCG7)", "READOUT_QUALIFIER": "=", "MEASURED_RESULT": 7.52}
{"MOLECULE_SMILES": "OC[C@@H]1NCC[C@@H](O)[C@H]1O", "ASSAY_TARGET": "Beta-glucosidase (Homo sapiens, UniProt Q9HCG7)", "READOUT_QUALIFIER": "=", "MEASURED_RESULT": 4.52}
{"MOLECULE_SMILES": "OC[C@H]1NCC=C[C@H]1O", "ASSAY_TARGET": "Beta-glucosidase (Homo sapiens, UniProt Q9HCG7)", "READOUT_QUALIFIER": "<", "MEASURED_RESULT": 3.00}
{"MOLECULE_SMILES": "CCCCN1CCC[C@H](O)[C@@H]1CO", "ASSAY_TARGET": "Beta-glucosidase (Homo sapiens, UniProt Q9HCG7)", "READOUT_QUALIFIER": "<", "MEASURED_RESULT": 3.30}
{"MOLECULE_SMILES": "OC[C@@H]1[C@H](O)C=CCN1CCCCCOCC12CC3CC(CC(C3)C1)C2", "ASSAY_TARGET": "Beta-glucosidase (Homo sapiens, UniProt Q9HCG7)", "READOUT_QUALIFIER": "=", "MEASURED_RESULT": 3.89}
